B1: VPS39 (parent)
chain: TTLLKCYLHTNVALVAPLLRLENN

Variants of: B1
Test: protein stability index of a GFP-peptide fusion (GPS, HEK-293T) (PSI 1-6); higher = more stable;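 also: lentivirally expressed fusions sorted by FACS into six bins by GFP to DsRed ratio, PSI derived from sequencing read proportions per bin multiplied by bin number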
Settings: c terminus: a fixed tail appended
Definition: the class of an entry is the range in bucket A: < 2; bucket B: ≥ 2 and < 3; bucket C: ≥ 3 that contains its protein stability index.

> print(dat)
   variant.description  label.class
1                 L21I     bucket B
2                 V12N     bucket B
3                  H9F     bucket B
4                 V15T     bucket B

Consider the additional variant presented here.
Request: Into which bin does this variant go? L21H
Response: bucket A
